In this section we review reported pKi values for a set of molecules.
molecular target: μ-opioid receptor (Rattus norvegicus, UniProt P33535); construct: the forebrains are homogenized in Tris buffer in a Teflon®-glass homogenizer; from tissue; host or cells: forebrain of male Wistar rats (particulate membrane preparation); assay: Rat brain μ-opioid receptor binding assay ([3H]DAMGO); conditions: MOR binding Ki
Sequence (P33535 whole entry): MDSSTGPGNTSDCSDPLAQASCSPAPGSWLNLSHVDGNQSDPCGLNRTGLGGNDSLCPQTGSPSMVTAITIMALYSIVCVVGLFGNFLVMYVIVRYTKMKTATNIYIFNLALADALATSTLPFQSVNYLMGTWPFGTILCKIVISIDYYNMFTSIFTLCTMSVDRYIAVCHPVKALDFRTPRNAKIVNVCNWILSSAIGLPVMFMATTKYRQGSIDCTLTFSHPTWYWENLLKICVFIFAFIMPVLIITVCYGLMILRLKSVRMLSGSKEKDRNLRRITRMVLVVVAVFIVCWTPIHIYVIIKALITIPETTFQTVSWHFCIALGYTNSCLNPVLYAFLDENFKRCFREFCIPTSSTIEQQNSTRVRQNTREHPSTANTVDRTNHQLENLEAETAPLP
// pKi is dimensionless: -log10 of concentration (M)

Reference set (3 entries):
*Q* Entry under review: CCNC(=O)c1ccc(C=C2CC3CCC(C2)N3Cc2ccc3c(c2)OCO3)cc1 [Cpd 54] . Reported pKi?
*A* 6.89

*Q* Need pKi of CCNC(=O)c1ccc(C(=C2CC3CCC(C2)N3Cc2ccc3ccccc3n2)c2cccc(NC(C)=O)c2)cc1 [Cpd 72] , thanks.
*A* 7.95

*Q* Return reported pKi; argument: CCNC(=O)c1ccc(C(=C2CC3CCC(C2)N3CC=C(C)C)c2ccc(CCC(=O)O)cc2)cc1 [Cpd 137]
*A* 8.01

Others:
*Q* I have this molecule here, CCNC(=O)c1ccc(C(=C2CC3CCC(C2)N3Cc2ccccn2)c2ccc(CO)cc2)cc1 [Cpd 193] , and I need its recorded pKi.
*A* 7.60

*Q* Query (molecule): CCNC(=O)c1ccc(C=C2CC3CCC(C2)N3CCC(C(=O)N(C)C)(c2ccccc2)c2ccccc2)cc1 [Cpd 107] ; field requested: pKi
*A* 7.64

*Q* Param item = CCNC(=O)c1ccc(C(=C2CC3CCC(C2)N3CCc2ccccc2)c2ccc(NS(C)(=O)=O)cc2)cc1 [Cpd 185] ; retrieve measured pKi.
*A* 7.23

*Q* Report pKi for CCNC(=O)c1ccc(C(=C2CC3CCC(C2)N3)c2nnn[nH]2)cc1 (single isomer, unassigned) [Cpd 202] please.
*A* 5.09

*Q* Which pKi reading was recorded for the molecule CCNC(=O)c1ccc(C(=C2CC3CCC(C2)N3Cc2ccsc2)c2ccc(CCC(=O)O)cc2)cc1 [Cpd 129] ?
*A* 8.17

From: patent US20050004163A1
